Below, each entry is listed alongside its reported CC50 at 48 h.
# assay details: CellTox green cytotoxicity assay on Vero E6 cells
# settings: African green monkey, Vero E6 cells (uninfected)

structure as smiles: Cc1ccc(C)c(OCCCCCCN2C[C@H](O)[C@@H](O)[C@H](O)[C@H]2CO)c1
measurement type: CC50 at 48 h
measured value: > 100 µM
--
structure as smiles: CCCCCCCCCN1C[C@H](O)[C@@H](O)[C@H](O)[C@H]1CO
measurement type: CC50 at 48 h
measured value: > 100 µM

Task: Input `CN1CCN(Cc2ccc(-c3cnc4[nH]cc(-c5ccc6[nH]ccc6c5)c4c3)cc2)CC1` , output reported CC50 at 48 h.
Result: 24.9 µM

Task: Input `Cc1nc(-c2ccc([C@@H]3N(C)c4ccc(F)cc4C(=O)N3c3ccccc3)s2)cs1` , output reported CC50 at 48 h.
Result: > 100 µM
